assay system: human TYK2 (JH2domain-pseudokinase) (Homo sapiens (Human), UniProt P29597)
Sequence (P29597 556-888): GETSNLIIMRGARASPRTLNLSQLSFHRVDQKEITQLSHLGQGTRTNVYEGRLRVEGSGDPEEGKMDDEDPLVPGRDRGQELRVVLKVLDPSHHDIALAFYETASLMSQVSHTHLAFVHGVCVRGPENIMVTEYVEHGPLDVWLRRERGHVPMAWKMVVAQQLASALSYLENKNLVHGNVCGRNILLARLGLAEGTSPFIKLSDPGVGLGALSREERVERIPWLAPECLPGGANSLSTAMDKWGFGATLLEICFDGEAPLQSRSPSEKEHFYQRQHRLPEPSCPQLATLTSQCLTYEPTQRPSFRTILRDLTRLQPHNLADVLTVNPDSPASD
procedure summary: TYK2 JH2 Domain Binding Assay (KINOMEscan, DiscoveRx)
condition parameters: 11-point dilution, duplicate
pKd: −log10 of the molar value.
property measured: pKd

Below, 5 compounds whose answers are already recorded.
INSERT INTO assay_data (compound, property_measured, assay_result) VALUES
  ('CS(=O)(=O)c1cc([C@H]2CCCCO2)ccc1Nc1cc(NC(=O)[C@H]2CC2(F)F)nc2[nH]c(C(F)F)nc12 [I-326]', 'pKd', '8.00 to 9.00'),
  ('Cc1nc2c(Nc3ccc(-c4nn(C)c(C)c4C)cc3S(C)(=O)=O)cc(NC(=O)C3CC3)nc2[nH]1', 'pKd', '> 10.00'),
  ('Cn1ccc(-c2ccc(Nc3cc(NC(=O)C4CC4(F)F)nc4[nH]c(C(F)F)nc34)c(S(C)(=O)=O)c2)n1 (stereo not shown)', 'pKd', '9.00 to 9.30'),
  ('Cc1ncc(Nc2cc(Nc3ccc(C4CC4)cc3S(C)(=O)=O)c3nc(C(F)F)[nH]c3n2)nc1C', 'pKd', '8.00 to 9.00'),
  ('Cc1cn(C)c(-c2ccc(Nc3cc(NC(=O)C4CC4)nc4[nH]c(C(F)F)nc34)c(S(C)(=O)=O)c2)n1', 'pKd', '9.30 to 10.00');

Query pKd for `Cn1ccc(-c2ccc(Nc3cc(NC(=O)C4CC4)nc4[nH]c(C(F)F)nc34)c(P(C)(C)=O)c2)n1`
> 10.00

Query pKd for CS(=O)(=O)c1cc(C2CCCCO2)ccc1Nc1cc(Nc2cccc(C(F)(F)F)n2)nc2[nH]c(C(F)F)nc12 (stereo not shown)
9.00 to 9.30

Query pKd for `COCCOc1ccc(Nc2cc(Nc3ccc(F)cc3S(C)(=O)=O)c3nc(C(F)F)[nH]c3n2)nc1C#N`
9.30 to 10.00

Query pKd for `Cc1cc(Nc2cc(Nc3ccc(C4=NC(C)(C)CS4)cc3S(C)(=O)=O)c3nc(C)[nH]c3n2)nc(C)n1`
9.30 to 10.00

Query pKd for `Cc1nc2c(Nc3ccc(-c4cnn(C)c4C)cc3S(C)(=O)=O)cc(Nc3cc4n(n3)CCOC4)nc2[nH]1`
> 10.00

Query pKd for `Cc1nc2c(Nc3ccc(-c4ncc(C)s4)cc3S(C)(=O)=O)cc(Nc3cc4n(n3)CCOC4)nc2[nH]1`
9.30 to 10.00

Query pKd for `Cc1cc(Nc2cc(Nc3ccc(-c4nc(C)cs4)cc3S(C)(=O)=O)c3nc(C)[nH]c3n2)nc(C)n1`
9.30 to 10.00

Query pKd for Cc1nc2c(Nc3ccc(C4CCCCO4)cc3S(C)(=O)=O)cc(Nc3cnc(C)c(C)n3)nc2[nH]1 (stereo not shown)
> 10.00

----------
assay system: human TYK2 (JH2domain-pseudokinase) (Homo sapiens (Human), UniProt P29597)
procedure summary: TYK2 JH2 Domain Binding Assay (KINOMEscan, DiscoveRx)
condition parameters: 11-point dilution, duplicate
property measured: Kd

Below, 4 compounds whose answers are already recorded.
INSERT INTO measurements (compound_structure_string, assay_result) VALUES
  ('COc1c(Nc2cc(NC(=O)C3CC3)nc3[nH]c(C(F)F)nc23)ccc(-c2cc(C)n(C)n2)c1F', '> 10 nM'),
  ('Cc1nc2c(Nc3ccc(-c4cn(C)cn4)cc3N(C)S(C)(=O)=O)cc(NC(=O)C3CC3)nc2[nH]1', '0.1 to 0.5 nM'),
  ('Cc1cnc(-c2ccc(Nc3cc(Nc4cc5n(n4)CCOC5)nc4[nH]c(C(F)F)nc34)c(S(C)(=O)=O)c2)s1', '0.1 to 0.5 nM'),
  ('CS(=O)(=O)c1cc(F)ccc1Nc1cc(Nc2cccc(C#N)n2)nc2[nH]c(C(F)F)nc12', '0.1 to 0.5 nM');

Moving on to the next compound.
Fill in Kd for `COCCCc1csc(-c2ccc(Nc3cc(NC(=O)C4CC4)nc4[nH]c(C(F)F)nc34)c(S(C)(=O)=O)c2)n1` tested with human TYK2 (JH2domain-pseudokinase) (Homo sapiens (Human), UniProt P29597).
0.5 to 1 nM
